Assay: refractive index (Na D-line) (dimensionless)
Conditions: 298.15 K; 101.33 kPa; Liquid; Standard Abbe refractometry
Some compounds, each annotated with its measured refractive index.
MEASURED_QUANTITY: refractive index

>>> measured_result("CCCC[n+]1ccn(C)c1.O=S(=O)([N-]S(=O)(=O)C(F)(F)F)C(F)(F)F")
1.42706
>>> measured_result("CCc1ccccc1 [ethylbenzene]")
1.49304
>>> measured_result("CCCn1cc[n+](C)c1.O=S(=O)([N-]S(=O)(=O)C(F)(F)F)C(F)(F)F")
1.42526
>>> measured_result("c1ccccc1 [benzene]")
1.49774
>>> measured_result("Cc1ccccc1 [toluene]")
1.49399
>>> measured_result("CCCCCCCC [octane]")
1.39519
>>> measured_result("CCCCCCCCC [nonane]")
1.40326
